From: the supplement of paper PMC11865577

# System: TO-N3 (biotin conjugate)
# protocolDetails: pull-down binding Z-score (relative to library population); higher = stronger binding
# conditionLabel: RNA library: Library-2
quantityName: pull-down binding Z-score
Answer with the value's number alone.

sequenceCode: GCUUUCUGUGGUCAGAAAGAAAAGCAAGU [hsa-mir-520f]
pull-down binding Z-score: 0.758
--
sequenceCode: CAUGAGCCCUUUGGAAAGGUCUCGUG [hsa-mir-4711]
pull-down binding Z-score: 0.16
--
sequenceCode: GCUGAGGCUUCUAAGAAGCCUCGGC
pull-down binding Z-score: -1.05
--
sequenceCode: CCUAAAGUGAAGUAUUUAUACUUUAUUAAAGG [DMSMaPseq_invitro_SARS-CoV-2_Motif_232]
pull-down binding Z-score: 0.411
--
sequenceCode: GCUGCCCCUUUGCUCUCUGGGGUAGC [hsa-mir-3614]
pull-down binding Z-score: 0.258

// sequence AUCUACAAUGAU [DMSMaPseq_invitro_SARS-CoV-2_Motif_243] , assay TO-N3 (biotin conjugate), pull-down binding Z-score value: -0.892

Entry CAGGCGGGGCAGCCCAAUGCCAUGGGCCUGAU [hsa-mir-4695] , tested on TO-N3 (biotin conjugate), has a reported pull-down binding Z-score of 1.32

pull-down binding Z-score of CUUUGUGAUUUUAUGAGAACAAAG [hsa-mir-3173] , assay on TO-N3 (biotin conjugate), is -1.22

====

# Tested on: TO-3-N3 (biotin conjugate)
# protocolDetails: pull-down binding Z-score (relative to library population); higher = stronger binding
# conditionLabel: RNA library: Library-2
quantityName: pull-down binding Z-score

Record excerpt, results attached:
sequenceCode: UGUGGCCUGGGGGUUGAGGACCCCUGCUCUA [hsa-mir-645]
systemTested: TO-3-N3 (biotin conjugate)
pull-down binding Z-score: 0.874
--
sequenceCode: GGAGCCUUCCCCAGAGGAGUCAGGCC [hsa-mir-4312]
systemTested: TO-3-N3 (biotin conjugate)
pull-down binding Z-score: 0.273
--
sequenceCode: GCUAACUGUGACCUUAGC [hsa-mir-4729]
systemTested: TO-3-N3 (biotin conjugate)
pull-down binding Z-score: 0.00513

// sample CUAUUCAGAAAUGUGGCCUGUGAUUAG [hsa-mir-1295a] , its pull-down binding Z-score was -0.00311

Recorded result, UCAGACACAUCAGAUCCCUUAUCUGUAAAAUGGGCAUGA [hsa-mir-640] , pull-down binding Z-score: -0.19

Quick note, pull-down binding Z-score for AAGCAGGGUUGGGCCUGGUU [hsa-mir-7641-1] landed at -0.192

====

# Test system: TO-3-N3 (biotin conjugate)
# protocolDetails: pull-down binding Z-score (relative to library population); higher = stronger binding
# conditionLabel: RNA library: Library-2
Each record here notes measured pull-down binding Z-score.
No unit in the answer, please; the number alone is enough.

Sample answers from the record:
sequenceCode: GCGCCGCCAGAAACUGGCUGCGC [mismatch-CU]
quantityName: pull-down binding Z-score
readoutValue: 0.308

sequenceCode: GAUUAUUGUAAGCAGGAUCCAUUCAAUAAUC [hsa-mir-5188]
quantityName: pull-down binding Z-score
readoutValue: -0.19

sequenceCode: UUACACCACUGGGCAUUGAUUUAGAUGAGUGGAGUAUGGCUACAUACUACUUAUUUGAUGAGUCUGGUGAGUUUAA
quantityName: pull-down binding Z-score
readoutValue: -0.972

sequenceCode: ACAGCGCCACGGAAGAGGACGCA [hsa-mir-941-4_941-5_941-2_941-3_941-1]
quantityName: pull-down binding Z-score
readoutValue: 0.0968

sequenceCode: CUCUGGUCAGUUGGGAGUCUGAG [hsa-mir-143]
quantityName: pull-down binding Z-score
readoutValue: -0.346

sequenceCode: GUUGGAUGGUCUAAUUGUGAAGCUCCUAAC [hsa-mir-141]
quantityName: pull-down binding Z-score
readoutValue: -0.103

sequenceCode: UCAGCUGUGGAAAGUAAGAAAGCUGG [hsa-mir-30c-2]
quantityName: pull-down binding Z-score
readoutValue: 0.97

sequenceCode: GUUAAAAUGUUUGAUGCUUACGUUAAUACGUUUUCAUCAACUUUUAAC
quantityName: pull-down binding Z-score
readoutValue: -1.02

sequenceCode: UUCUCCUUGGGAAAAACAGAGAA [hsa-mir-605]
quantityName: pull-down binding Z-score
readoutValue: -0.446

sequenceCode: CCUUCACUGUAGAAAAAGG [SHAPE_invivo_SARS-CoV-2_Motif_423]
quantityName: pull-down binding Z-score
readoutValue: -0.468

Readout pull-down binding Z-score for AAGAGAAAGUCAACAUCAAUAUUGUUGGUGACUUUAAACUU , test system TO-3-N3 (biotin conjugate), was 0.608

The reported TO-3-N3 (biotin conjugate) pull-down binding Z-score of CCUAAUGGAUGG [IAV_invivo_NA_6_Motif_15+IAV_invivo_NA_6_Motif_15] is -0.555

Form field, pull-down binding Z-score with TO-3-N3 (biotin conjugate), item AUAGUUUUAGGGUCAUACCCCAUCUUGGAGAUAACUAU [hsa-let-7f-2] : -0.384

Record UUAAUGGAGUCACAUUAA [DMSMaPseq_invitro_SARS-CoV-2_Motif_357] has TO-3-N3 (biotin conjugate) pull-down binding Z-score equal to 0.485

Per the reported TO-3-N3 (biotin conjugate) data, GGCUGGUGGCACUACUGAAAUGCUAGCGAAAGCUUUGAGAAAAGUGCCAACAGAC has pull-down binding Z-score of 0.234

pull-down binding Z-score value, target or system TO-3-N3 (biotin conjugate), for UGCUGUGAGCUAGCCAGCAG [hsa-mir-5693] : -0.0213

====

pull-down binding Z-score for assorted sequences
# Test system: TO-3-N3 (biotin conjugate)
# protocolDetails: pull-down binding Z-score (relative to library population); higher = stronger binding
# conditionLabel: RNA library: Library-2
Lab note: record the figure alone, no unit after it.

sequenceCode: CCGAGUGAUCUCGGU [hsa-mir-8071-1_8071-2]
quantityName: pull-down binding Z-score
readoutValue: -0.581

sequenceCode: CACAUGAAGGUAAAACAUUUUAUGUUUUACCUAAUGAUG
quantityName: pull-down binding Z-score
readoutValue: -0.659

sequenceCode: UUUUUUUCCAAUGAAAAUAACGAAACCUGUUAUUUCCCAUUGAGGGGGAAAAA [hsa-mir-4484]
quantityName: pull-down binding Z-score
readoutValue: -1.12

sequenceCode: GUUCUCUAAACGAAC
quantityName: pull-down binding Z-score
readoutValue: -0.273

sequenceCode: CAUAAACGAACUUAUGGAUUUGUUUAUG
quantityName: pull-down binding Z-score
readoutValue: -0.474

sequenceCode: GGUAUGGAUUCUGUUGUUUUGGCAACAUUCU [hsa-mir-8088]
quantityName: pull-down binding Z-score
readoutValue: -0.382

sequenceCode: UGGUGCAAUAAUUGG [hsa-mir-1302-7]
quantityName: pull-down binding Z-score
readoutValue: 0.418

sequenceCode: GUGUACCUCAUGUGUGUACAC [hsa-mir-5692a-2_5692a-1]
quantityName: pull-down binding Z-score
readoutValue: -0.584

sequenceCode: CGGCGGGCACGUAGUGUAGCUAGUCAAUCCAUCAUUGCCUACACUAUGUCACUUGGUG [SHAPE_invitro_SARS-CoV-2_Motif_429]
quantityName: pull-down binding Z-score
readoutValue: 0.745

sequenceCode: GGUUUUUACCAUUAAAACC [hsa-mir-548aw]
quantityName: pull-down binding Z-score
readoutValue: -0.656

Field pull-down binding Z-score (TO-3-N3 (biotin conjugate)), entry GCAGCAGGCACCUGCUUCC [hsa-mir-6868] : 0.367

Entry ACAACAACCAUAAAACCAGUUACUUAUAAAUUGGAUGGUGUUGU , tested on TO-3-N3 (biotin conjugate), has a reported pull-down binding Z-score of -0.686

====

# Test system: TO-3-N3 (biotin conjugate)
# protocolDetails: pull-down binding Z-score (relative to library population); higher = stronger binding
# conditionLabel: RNA library: Library-2
quantityName: pull-down binding Z-score
# answer = number (no unit)

Check out these entries, answers already filled in.
sequenceCode: CUUCCCAUUUAAAAGUAAUGGCACA [hsa-mir-603]
pull-down binding Z-score: 0.893
--
sequenceCode: GGUGGGCCUCUGCUCUGGCCCCUCC [hsa-mir-1343]
pull-down binding Z-score: 0.0146

// switching to the query sequence
For record ACGCGCUGUGACACUUCAAACUCGU [hsa-mir-126] the listed pull-down binding Z-score is -0.0932

====

# Tested on: TO-3-N3-2 (biotin conjugate)
# protocolDetails: pull-down binding Z-score (relative to library population); higher = stronger binding
# conditionLabel: RNA library: Library-2
Decision: pull-down binding Z-score compared against -0.4; not below it gives Condition met, below it gives Condition not met.

Observe how each entry below is paired with its result.
sequenceCode: GAUGGCUUUCCUUGAGGAAUCCCAUC [IAV_invivo_PB1_2_Motif_6+IAV_invivo_PB1_2_Motif_6]
group: Condition not met

sequenceCode: CUCACCAUAGUGGUGGA [hsa-mir-1288]
group: Condition not met

sequenceCode: CUGUUGUGCCUAAUUCAGAG [hsa-mir-296]
group: Condition met

sequenceCode: UUUGCUGUUGAACGUAGUGGUAA [hsa-mir-548ar]
group: Condition met

sequenceCode: GACUCUGAGCCAGUGCUCAAAGGAGUC
group: Condition not met

sequenceCode: AAAAUGUUUGUCAUAAACCGUUUU [hsa-mir-335]
group: Condition met

Check this sequence for pull-down binding Z-score at or above -0.4: GGUGUUUUAACUGCUGUGGUUAUACCUACUAAAAAGGCUGGUGGCACUACUGAAAUGCU
Condition met

Is it the case that CCUGUUUUACAAAUAAGGAAAUAAACUCAGG [hsa-mir-1321] has pull-down binding Z-score reaching or exceeding -0.4?
Condition met

Does AUCAUGUAUAAUUAAAAAUGAU [hsa-mir-509-2_509-3_509-1] have a reported pull-down binding Z-score of at least -0.4?
Condition met

Is it the case that GCCAUUGCCGGU [IAV_invivo_HA_4_Motif_15+IAV_invivo_HA_4_Motif_15] has pull-down binding Z-score reaching or exceeding -0.4?
Condition not met

Hi team, for UGGGUUAAGCCGAGCUGG [hsa-mir-4507] , is the recorded pull-down binding Z-score at or above -0.4?
Condition met
